measured on: human CD40 on cells (human, UniProt P25942 21-277)
Sequence (P25942 21-277): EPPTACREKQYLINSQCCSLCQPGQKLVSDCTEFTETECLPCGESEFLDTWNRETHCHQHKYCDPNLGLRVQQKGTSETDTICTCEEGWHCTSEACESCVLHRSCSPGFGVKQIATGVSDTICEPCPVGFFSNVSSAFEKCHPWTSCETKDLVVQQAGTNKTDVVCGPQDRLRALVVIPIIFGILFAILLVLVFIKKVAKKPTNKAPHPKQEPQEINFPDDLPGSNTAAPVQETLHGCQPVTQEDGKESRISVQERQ
protocol summary: cell-based or functional assay
measured metric: EC50 (nM), crosslinked, HEK293-hCD40-NFkB reporter
Note: unit nM is implicit; provide only the numeric part.

PR006511 (antibody, human IgG1, kappa, V domains shown, PR003379 variant L:S93N; human IgG1 L234A, L235A, G237A) VH: QVQLVQSGAEVKKPGASVKVSCKASGYTFAGYYMYWVRQAPGQGLEWMGWINPDSGAPTYAQKFQGRVTMTRDTSISTAYMELSRLRSDDTAVYYCAREKIYYGSGNYYPSFDYWGQGTLVTVSS VL: DIQLTQSPSFLSASVGDRVTITCRASQGISSYLAWYQQKPGKAPKLLIYAASTLQSGVPSRFSGSGSGTEFTLTISSLQPEDFATYYCQQLNNYPWTFGQGTKVEIKR; 0.16
PR006500 (antibody, human IgG1, kappa, V domains shown, PR003379 variant L:N92M; human IgG1 L234A, L235A, G237A) VH: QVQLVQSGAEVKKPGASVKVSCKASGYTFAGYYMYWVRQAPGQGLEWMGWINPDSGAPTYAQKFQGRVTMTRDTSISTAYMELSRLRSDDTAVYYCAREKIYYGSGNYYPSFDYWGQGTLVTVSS VL: DIQLTQSPSFLSASVGDRVTITCRASQGISSYLAWYQQKPGKAPKLLIYAASTLQSGVPSRFSGSGSGTEFTLTISSLQPEDFATYYCQQLMSYPWTFGQGTKVEIKR; 0.169
PR006502 (antibody, human IgG1, kappa, V domains shown, PR003379 variant L:N92D; human IgG1 L234A, L235A, G237A) VH: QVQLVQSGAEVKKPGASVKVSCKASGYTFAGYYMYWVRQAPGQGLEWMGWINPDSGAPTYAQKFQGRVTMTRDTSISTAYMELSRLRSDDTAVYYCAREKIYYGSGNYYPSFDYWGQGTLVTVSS VL: DIQLTQSPSFLSASVGDRVTITCRASQGISSYLAWYQQKPGKAPKLLIYAASTLQSGVPSRFSGSGSGTEFTLTISSLQPEDFATYYCQQLDSYPWTFGQGTKVEIKR; 0.17
PR006504 (antibody, human IgG1, kappa, V domains shown, PR003379 variant L:N92V; human IgG1 L234A, L235A, G237A) VH: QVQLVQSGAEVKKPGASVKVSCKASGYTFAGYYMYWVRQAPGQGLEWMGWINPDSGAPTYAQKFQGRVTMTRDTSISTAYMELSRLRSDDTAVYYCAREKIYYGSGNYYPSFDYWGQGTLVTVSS VL: DIQLTQSPSFLSASVGDRVTITCRASQGISSYLAWYQQKPGKAPKLLIYAASTLQSGVPSRFSGSGSGTEFTLTISSLQPEDFATYYCQQLVSYPWTFGQGTKVEIKR; 0.157
PR006497 (antibody, human IgG1, kappa, V domains shown, PR003379 variant L:N92Y; human IgG1 L234A, L235A, G237A) VH: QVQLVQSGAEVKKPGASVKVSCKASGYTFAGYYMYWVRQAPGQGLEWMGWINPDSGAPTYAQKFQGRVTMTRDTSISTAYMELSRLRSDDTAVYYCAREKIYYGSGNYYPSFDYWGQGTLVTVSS VL: DIQLTQSPSFLSASVGDRVTITCRASQGISSYLAWYQQKPGKAPKLLIYAASTLQSGVPSRFSGSGSGTEFTLTISSLQPEDFATYYCQQLYSYPWTFGQGTKVEIKR; 0.158

Turning now to a further binder:
What measured EC50 (nM), crosslinked, HEK293-hCD40-NFkB reporter goes with PR006499 (antibody, human IgG1, kappa, V domains shown, PR003379 variant L:N92W; human IgG1 L234A, L235A, G237A) VH: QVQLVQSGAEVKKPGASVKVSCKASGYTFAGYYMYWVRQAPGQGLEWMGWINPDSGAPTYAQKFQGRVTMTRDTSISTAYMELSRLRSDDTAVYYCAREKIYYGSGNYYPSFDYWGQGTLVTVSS VL: DIQLTQSPSFLSASVGDRVTITCRASQGISSYLAWYQQKPGKAPKLLIYAASTLQSGVPSRFSGSGSGTEFTLTISSLQPEDFATYYCQQLWSYPWTFGQGTKVEIKR ?
0.405
